# Tested on: RD
# PROTOCOL: relative viability vs DMSO control (72 h) (fraction); higher = more viable cells
# RUN CONDITIONS: 0.3704 µM
MEASURED PROPERTY: relative viability
Form: value (number only, do not type unit).

State the recorded relative viability for this entry: CN(C)C[C@@H]1CCn2cc(c3ccccc32)C2=C(C(=O)NC2=O)c2cn(c3ccccc23)CCO1
1.1

----------
# Tested on: SW872
# PROTOCOL: relative viability vs DMSO control (72 h) (fraction); higher = more viable cells
# RUN CONDITIONS: 0.04115 µM
Quick list: relative viability per entry.
Form: value (number only, do not type unit).

Consider the following illustrative entries.
CCCCCCCCCCCCCCCCCCOP(=O)([O-])OC1CC[N+](C)(C)CC1 ... 1.05
CCCS(=O)(=O)N[C@H]1C[C@@H](N(C)c2ncnc3[nH]ccc23)C1 ... 1.03

Lab note: next molecule to report on.
State the recorded relative viability for this entry: COc1cc2ncnc(Nc3cccc(Cl)c3F)c2cc1OC(=O)N1CCN(C)C[C@H]1C
1.05
